Provide the recorded melting point for the entries that follow.

Compound: O=C1CCCC2=C1C(c1cccc(Br)c1)C1=C(CCCC1)N2 (stereo not drawn)
melting point: 258 to 260 °C

Quick one: give me melting point for each item below, same order please.
1. C[C@H]1C=CC(S(=O)(=O)c2ccccc2)=C[C@H](C)[C@H]1O
2. O=[N+]([O-])c1nc(CC(O)C2CO2)c[nH]1 (stereo not drawn)

A.
1. 100 to 102 °C
2. 90 to 92 °C

* * *

Field: melting point. Provide a value for each of the compounds that follow.

Below are worked cases with known answers.
Compound: CNc1cc(-c2sc(N)nc2-c2cccc(C)n2)ccc1[N+](=O)[O-]
Experimental Value: 100 to 102 °C

Compound: Cc1cc(N2C=CC(O)CC2)nn2cnnc12 (stereo not drawn)
Experimental Value: 171 to 173 °C

Compound: NC(CF)(Cc1cc(O)ccc1O)C(=O)O (stereo not drawn)
Experimental Value: 212 °C

Compound: O=S(=O)(c1ccc(Cl)cc1)C1(c2cnccc2Cl)CCCCC1
Experimental Value: 145 to 147 °C

Compound: Nc1nccc(Oc2ccc3c(C(=O)Nc4cccc(C(F)(F)F)c4)cccc3c2)n1
Experimental Value: 218 °C

Compound: CCCCCCOc1ccc(-c2ncc(Br)cn2)cn1
Experimental Value: 103 to 106 °C

Compound: CCOC(=O)CCc1ccc(CCNS(=O)(=O)c2ccc(Cl)cc2)cc1
Experimental Value: 61 to 62 °C

Q. Query: melting point; subject: COc1nc2ccccc2cc1NC(=S)N1CCN(c2cc(F)cc(F)c2)CC1
A. 140 to 142 °C
